Target: T1, human TL1A extracellular domain with N-terminal HIS and FLAG tag (human, UniProt O95150 72-251)
T1 construct: whole entry named. ~70 kDa fraction purified by gel filtration
T1 sequence: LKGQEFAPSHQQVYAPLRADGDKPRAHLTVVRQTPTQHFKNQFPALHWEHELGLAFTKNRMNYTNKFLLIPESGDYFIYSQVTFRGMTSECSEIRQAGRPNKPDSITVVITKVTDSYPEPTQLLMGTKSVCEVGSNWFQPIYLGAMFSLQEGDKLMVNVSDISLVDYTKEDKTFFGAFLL
Assay: SPR run 2; purified antibody on Protein A; TL1A 10 ug/mL; timepoint 44
We begin with a simple list: items and their reported TL1A Binding Level (Early).
# number only, unit RU dropped from output

Consider the worked cases shown below.
INSERT INTO results (binder, property_measured, unit_of_measure, recorded_value) VALUES
  ('320-205 (antibody, human IgG1, name in Kabat numbering, V domains shown, human IgG1, lambda) VH: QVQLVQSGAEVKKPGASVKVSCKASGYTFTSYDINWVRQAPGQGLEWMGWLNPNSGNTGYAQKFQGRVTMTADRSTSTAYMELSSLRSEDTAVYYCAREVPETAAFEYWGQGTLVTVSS VL: QSVLTQPPSVSGAPGQRVTISCTKSSSDIGAGLGVHWYQQLPGTAPKLLIEGYYNRPSGVPDRFSGSKSGTSASLTITGLLPEDEGDYYCQSYDGTLSALFGGGTKLTVLG', 'TL1A Binding Level (Early)', 'RU', 70),
  ('320-213 (antibody, human IgG1, name in Kabat numbering, V domains shown, human IgG1, lambda) VH: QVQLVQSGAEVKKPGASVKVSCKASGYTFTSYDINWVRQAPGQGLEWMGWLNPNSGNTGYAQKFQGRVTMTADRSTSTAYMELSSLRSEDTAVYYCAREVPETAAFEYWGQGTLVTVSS VL: QSVLTQPPSVSGAPGQRVTISCTSKSSDIGAGLGVHWYQQLPGTAPKLLIEGYYNRPSGVPDRFSGSKSGTSASLTITGLLPEDEGDYYCQSYDGTLSALFGGGTKLTVLG', 'TL1A Binding Level (Early)', 'RU', 79);

Challenge: Could you share which TL1A Binding Level (Early) value was measured for 320-236 (antibody, human IgG1, name in Kabat numbering, V domains shown, human IgG1, lambda) VH: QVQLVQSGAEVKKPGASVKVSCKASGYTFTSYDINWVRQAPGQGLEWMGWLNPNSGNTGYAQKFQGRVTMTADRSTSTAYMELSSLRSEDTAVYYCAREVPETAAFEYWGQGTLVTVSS VL: QSVLTQPPSVSGAPGQRVTISCTSSSSHIGAGLGVHWYQQLPGTAPKLLIEGYYNRPSGVPDRFSGSKSGTSASLTITGLLPEDEGDYYCQSYDGTLSALFGGGTKLTVLG ?
Response given: 5

Challenge: Also check 320-218 (antibody, human IgG1, name in Kabat numbering, V domains shown, human IgG1, lambda) VH: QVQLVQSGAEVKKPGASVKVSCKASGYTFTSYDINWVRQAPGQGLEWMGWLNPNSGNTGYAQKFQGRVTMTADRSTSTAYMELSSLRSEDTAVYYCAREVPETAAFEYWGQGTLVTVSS VL: QSVLTQPPSVSGAPGQRVTISCTSSQSDIGAGLGVHWYQQLPGTAPKLLIEGYYNRPSGVPDRFSGSKSGTSASLTITGLLPEDEGDYYCQSYDGTLSALFGGGTKLTVLG
Response given: 92

Challenge: Also check 320-203 (antibody, human IgG1, name in Kabat numbering, V domains shown, human IgG1, lambda) VH: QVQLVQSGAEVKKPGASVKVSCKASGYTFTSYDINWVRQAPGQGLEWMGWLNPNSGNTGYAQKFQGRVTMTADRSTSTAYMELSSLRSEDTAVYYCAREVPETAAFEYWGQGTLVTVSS VL: QSVLTQPPSVSGAPGQRVTISCTDSSSDIGAGLGVHWYQQLPGTAPKLLIEGYYNRPSGVPDRFSGSKSGTSASLTITGLLPEDEGDYYCQSYDGTLSALFGGGTKLTVLG
Response given: 65

Challenge: Also check 320-211 (antibody, human IgG1, name in Kabat numbering, V domains shown, human IgG1, lambda) VH: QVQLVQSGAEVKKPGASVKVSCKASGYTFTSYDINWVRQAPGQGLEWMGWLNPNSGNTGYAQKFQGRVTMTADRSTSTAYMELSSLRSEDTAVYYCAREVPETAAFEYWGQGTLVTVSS VL: QSVLTQPPSVSGAPGQRVTISCTSDSSDIGAGLGVHWYQQLPGTAPKLLIEGYYNRPSGVPDRFSGSKSGTSASLTITGLLPEDEGDYYCQSYDGTLSALFGGGTKLTVLG
Response given: 80

Challenge: Also check 320-233 (antibody, human IgG1, name in Kabat numbering, V domains shown, human IgG1, lambda) VH: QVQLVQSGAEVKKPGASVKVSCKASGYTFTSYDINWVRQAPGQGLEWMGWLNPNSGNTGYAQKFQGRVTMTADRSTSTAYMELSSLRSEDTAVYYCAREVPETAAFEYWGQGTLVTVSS VL: QSVLTQPPSVSGAPGQRVTISCTSSSSAIGAGLGVHWYQQLPGTAPKLLIEGYYNRPSGVPDRFSGSKSGTSASLTITGLLPEDEGDYYCQSYDGTLSALFGGGTKLTVLG
Response given: 48

Challenge: Also check 320-194 (antibody, human IgG1, name in Kabat numbering, V domains shown, human IgG1, lambda) VH: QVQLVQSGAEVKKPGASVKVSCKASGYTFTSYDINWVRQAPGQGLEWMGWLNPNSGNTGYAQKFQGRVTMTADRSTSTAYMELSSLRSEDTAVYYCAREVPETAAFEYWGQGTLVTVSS VL: QSVLTQPPSVSGAPGQRVTISCQSSSSDIGAGLGVHWYQQLPGTAPKLLIEGYYNRPSGVPDRFSGSKSGTSASLTITGLLPEDEGDYYCQSYDGTLSALFGGGTKLTVLG
Response given: 76
